Where do the numbers come from? From ChEMBL document CHEMBL4138271.

test system: EOL1; test: Synergistic antileukemic activity against human EOL-1 cells assessed as concentration required for <= 75% cell survival after 72 hrs in presence of midostaurin by CellTiter 96 AQueous One solution cell proliferation assay; assay type: functional
value-kind: Activity (µM)

• C=C(C)C(=O)O[C@H]1C[C@@]2(C)OC(=CC2=O)/C(C)=C\[C@H]2OC(=O)C(=C)[C@H]12 = 0.59
• C=C1C(=O)O[C@@H]2C3O[C@]3(C)CC/C=C(\C)CC[C@@H]12 (stereo not given in full) = 3.2
• C=C(C)C(=O)O[C@H]1C[C@@]2(C)OC(=CC2=O)/C(CO)=C\[C@H]2OC(=O)C(=C)[C@H]12 [GOIAZENSOLIDE] = 0.56
• C=C1C(=O)O[C@@H]2C[C@@H](C)CCC(=O)[C@](C)(OC(C)=O)C[C@H](OC(=O)/C(C)=C\C)[C@@H]12 = 2.5
• C=C1C(=O)O[C@@H]2C[C@@H](C)/C=C\C(=O)[C@](C)(OC(C)=O)C[C@H](OC(=O)/C(C)=C\C)[C@@H]12 = 2.5

----------
tested on: HT-29; test: Cytotoxicity against human HT-29 cells after 72 hrs by MTS assay; assay type: functional, cell-based; details: HT-29, 72 h
pIC50: −log10 of the molar value.
pIC50: recorded values
value-kind: pIC50

• C=C1C(=O)O[C@@H]2C[C@@H](C)CCC(=O)[C@](C)(OC(C)=O)C[C@H](OC(=O)/C(C)=C\C)[C@@H]12 = 5.52
• C=C1C(=O)O[C@@H]2C[C@@H](C)/C=C\C(=O)[C@](C)(OC(C)=O)C[C@H](OC(=O)/C(C)=C\C)[C@@H]12 = 5.92
• C=C(C)C(=O)O[C@H]1C[C@@]2(C)OC(=CC2=O)/C(C)=C\[C@H]2OC(=O)C(=C)[C@H]12 = 6.59
• C=C(C)C(=O)O[C@H]1C[C@@]2(C)OC(=CC2=O)/C(CO)=C\[C@H]2OC(=O)C(=C)[C@H]12 [GOIAZENSOLIDE] = 6.25

----------
test system: MOLM-13; test: Cytotoxicity against human MOLM13 cells after 72 hrs by MTS assay; assay type: functional, cell-based; details: MOLM-13, 72 h
Items are presented alongside their recorded IC50.
value-kind: IC50 (µM)

* C=C1C(=O)O[C@@H]2C[C@@H](C)CCC(=O)[C@](C)(OC(C)=O)C[C@H](OC(=O)/C(C)=C\C)[C@@H]12 | 10
* C=C1C(=O)O[C@@H]2C3O[C@]3(C)CC/C=C(\C)CC[C@@H]12 (stereo not given in full) | 10
* C=C(C)C(=O)O[C@H]1C[C@@]2(C)OC(=CC2=O)/C(C)=C\[C@H]2OC(=O)C(=C)[C@H]12 | 1.1
* C=C(C)C(=O)O[C@H]1C[C@@]2(C)OC(=CC2=O)/C(CO)=C\[C@H]2OC(=O)C(=C)[C@H]12 [GOIAZENSOLIDE] | 0.86
* C=C1C(=O)O[C@@H]2C[C@@H](C)/C=C\C(=O)[C@](C)(OC(C)=O)C[C@H](OC(=O)/C(C)=C\C)[C@@H]12 | 4.3
